meta.source: the supplement of paper PMC11061612

- Test system: RPMI-6666 (Non-Cancerous)
- test details: Bliss excess, mean over the matrix (fraction); higher = more synergy
Quick reference: Bliss excess of the listed items.
endpoint: Bliss excess

[[record]]
compound = "CS(=O)(=O)CCNCc1ccc(-c2ccc3ncnc(Nc4ccc(OCc5cccc(F)c5)c(Cl)c4)c3c2)o1 [Lapatinib] + C[C@@H](Oc1cc(-c2cnn(C3CCNCC3)c2)cnc1N)c1c(Cl)ccc(F)c1Cl [Crizotinib] (first compound max 10 µM, 7x7, partner max 10 µM)"
result = -0.0624

[[record]]
compound = "CC1(C)CCC(CN2CCN(c3ccc(C(=O)NS(=O)(=O)c4ccc(NCC5CCOCC5)c([N+](=O)[O-])c4)c(Oc4cnc5[nH]ccc5c4)c3)CC2)=C(c2ccc(Cl)cc2)C1 [Venetoclax] + CS(=O)(=O)CCNCc1ccc(-c2ccc3ncnc(Nc4ccc(OCc5cccc(F)c5)c(Cl)c4)c3c2)o1 [Lapatinib] (first compound max 1 µM, 7x7, partner max 10 µM)"
result = 0.0423


----------
- Test system: SUP-T1 (T-Lymphoblastic Leukemia)
- test details: Bliss excess, mean over the matrix (fraction); higher = more synergy
# Bliss excess annotations
endpoint: Bliss excess

[[record]]
compound = "Cc1c2c(nn1C)CSCc1cc(n(C)n1)CSc1cc(c3ccccc3c1)OCCCc1c(C(=O)O)n(C)c3c-2c(Cl)ccc13 [AZD5991] + C[C@@H]1COCCN1C2=NC(=NC(=C2)C3(CC3)[S@](=N)(=O)C)C4=C5C=CNC5=NC=C4 [AZD6738] (first compound max 1 µM, 7x7, partner max 10 µM)"
tgt = "SUP-T1 (T-Lymphoblastic Leukemia)"
endpoint = "Bliss excess"
numeric_value = -0.024

[[record]]
compound = "C[C@@H]1COCCN1c1cc(C2([S@](C)(=N)=O)CC2)nc(-c2ccnc3[nH]ccc23)n1 [AZD6738] + C1CC(C1)(C(=O)[O-])C(=O)[O-].N.N.[Pt+2] [Carboplatin] (first compound max 10 µM, 7x7, partner max 10 µM)"
tgt = "SUP-T1 (T-Lymphoblastic Leukemia)"
endpoint = "Bliss excess"
numeric_value = -0.0298

[[record]]
compound = "COc1nnc2ccc(N3CCC(c4ccc(OCCN5CCN(C)C(=O)[C@H]5C)cc4)CC3)nn12 [AZD5153] + CC1(C)CCC(CN2CCN(c3ccc(C(=O)NS(=O)(=O)c4ccc(NCC5CCOCC5)c([N+](=O)[O-])c4)c(Oc4cnc5[nH]ccc5c4)c3)CC2)=C(c2ccc(Cl)cc2)C1 [Venetoclax] (first compound max 1 µM, 7x7, partner max 1 µM)"
tgt = "SUP-T1 (T-Lymphoblastic Leukemia)"
endpoint = "Bliss excess"
numeric_value = -0.0766

[[record]]
compound = "CCN(CCO)CCCOc1ccc2c(Nc3cc(CC(=O)Nc4cccc(F)c4)[nH]n3)ncnc2c1 [AZD2811] + O=C(c1cc(Cc2n[nH]c(=O)c3ccccc23)ccc1F)N1CCN(C(=O)C2CC2)CC1 [Olaparib] (first compound max 1 µM, 7x7, partner max 10 µM)"
tgt = "SUP-T1 (T-Lymphoblastic Leukemia)"
endpoint = "Bliss excess"
numeric_value = 0.0208

[[record]]
compound = "N#Cc1cnc(Nc2cc(NC[C@H]3CNCCO3)c(C(F)(F)F)cn2)cn1 [SRA737] + C=CCn1c(=O)c2cnc(Nc3ccc(N4CCN(C)CC4)cc3)nc2n1-c1cccc(C(C)(C)O)n1 [AZD1775] (first compound max 10 µM, partner max 1 µM)"
tgt = "SUP-T1 (T-Lymphoblastic Leukemia)"
endpoint = "Bliss excess"
numeric_value = -0.0003

[[record]]
compound = "COc1cc2c(cc1OCCCCCOc1cc3c(cc1OC)C(=O)N1C=C(C)C[C@H]1C=N3)N=C[C@@H]1CC(C)=CN1C2=O [SG3199] + O=C(c1cc(Cc2n[nH]c(=O)c3ccccc23)ccc1F)N1CCN(C(=O)C2CC2)CC1 [Olaparib] (first compound max 0.001 µM, 7x7, partner max 10 µM)"
tgt = "SUP-T1 (T-Lymphoblastic Leukemia)"
endpoint = "Bliss excess"
numeric_value = -0.0478

[[record]]
compound = "Cc1c2c(nn1C)CSCc1cc(n(C)n1)CSc1cc(c3ccccc3c1)OCCCc1c(C(=O)O)n(C)c3c-2c(Cl)ccc13 [AZD5991] + Nc1ccn([C@@H]2O[C@H](CO)[C@@H](O)C2(F)F)c(=O)n1 [Gemcitabine] (first compound max 1 µM, 7x7, partner max 0.3 µM)"
tgt = "SUP-T1 (T-Lymphoblastic Leukemia)"
endpoint = "Bliss excess"
numeric_value = -0.0332


----------
- Test system: NCI-H69 (Small Cell Lung Carcinoma)
- test details: combination Emax (second highest fraction inhibited in the dose matrix, 72 h); higher = more inhibition; extreme values may be limits of the assay
endpoint: combination Emax

[[record]]
molecule = "CC1(C)CCC(CN2CCN(c3ccc(C(=O)NS(=O)(=O)c4ccc(NCC5CCOCC5)c([N+](=O)[O-])c4)c(Oc4cnc5[nH]ccc5c4)c3)CC2)=C(c2ccc(Cl)cc2)C1 [Venetoclax] + C1CN(CCC1(C(=O)N[C@@H](CCO)C2=CC=C(C=C2)Cl)N)C3=NC=NC4=C3C=CN4 [Capivasertib] (first compound max 1 µM, 7x7, partner max 3 µM)"
tgt = "NCI-H69 (Small Cell Lung Carcinoma)"
endpoint = "combination Emax"
numeric_value = 0.802

[[record]]
molecule = "COc1nnc2ccc(N3CCC(c4ccc(OCCN5CCN(C)C(=O)[C@H]5C)cc4)CC3)nn12 [AZD5153] + C[C@@H]1COCCN1C2=NC(=NC(=C2)C3(CC3)[S@](=N)(=O)C)C4=C5C=CNC5=NC=C4 [AZD6738] (first compound max 1 µM, 7x7, partner max 10 µM)"
tgt = "NCI-H69 (Small Cell Lung Carcinoma)"
endpoint = "combination Emax"
numeric_value = 0.735


----------
molecules and their reported combination Emax
- System: Mewo (Melanoma)
- test details: combination Emax (second highest fraction inhibited in the dose matrix, 72 h); higher = more inhibition; extreme values may be limits of the assay
endpoint: combination Emax

[[record]]
molecule = "CC1(C)CCC(CN2CCN(c3ccc(C(=O)NS(=O)(=O)c4ccc(NCC5CCOCC5)c([N+](=O)[O-])c4)c(Oc4cnc5[nH]ccc5c4)c3)CC2)=C(c2ccc(Cl)cc2)C1 [Venetoclax] + Cc1cc2ncnn2cc1Nc1ncc2c(n1)n(C1CCOCC1)c(=O)n2C [AZD7648] (first compound max 1 µM, 7x7, partner max 10 µM)"
numeric_value = 0.509

[[record]]
molecule = "NC1(C(=O)N[C@@H](CCO)c2ccc(Cl)cc2)CCN(c2ncnc3[nH]ccc23)CC1 [Capivasertib] + CCN(CCO)CCCOc1ccc2c(Nc3cc(CC(=O)Nc4cccc(F)c4)[nH]n3)ncnc2c1 [AZD2811] (first compound max 10 µM, 7x7, partner max 1 µM)"
numeric_value = 0.401

[[record]]
molecule = "C[C@@H](c1ccc2nccn2c1)n1nnc2ncc(-c3cnn(C)c3)nc21 [Savolitinib] + Cc1c2c(nn1C)CSCc1cc(n(C)n1)CSc1cc(c3ccccc3c1)OCCCc1c(C(=O)O)n(C)c3c-2c(Cl)ccc13 [AZD5991] (first compound max 1 µM, 7x7, partner max 1 µM)"
numeric_value = 0.265

[[record]]
molecule = "C=CCn1c(=O)c2cnc(Nc3ccc(N4CCN(C)CC4)cc3)nc2n1-c1cccc(C(C)(C)O)n1 [AZD1775] + C[C@@H]1COCCN1C2=NC(=NC(=C2)C3(CC3)[S@](=N)(=O)C)C4=C5C=CNC5=NC=C4 [AZD6738] (first compound max 1 µM, partner max 10 µM)"
numeric_value = 0.71

[[record]]
molecule = "NC1(C(=O)N[C@@H](CCO)c2ccc(Cl)cc2)CCN(c2ncnc3[nH]ccc23)CC1 [Capivasertib] + CC(=O)c1c(C)c2cnc(Nc3ccc(N4CCNCC4)cn3)nc2n(C2CCCC2)c1=O [Palbociclib] (first compound max 10 µM, 7x7, partner max 10 µM)"
numeric_value = 0.493

[[record]]
molecule = "CC(=O)c1c(C)c2cnc(Nc3ccc(N4CCNCC4)cn3)nc2n(C2CCCC2)c1=O [Palbociclib] + Cn1cnc2c(F)c(Nc3ccc(Br)cc3Cl)c(C(=O)NOCCO)cc21 [Selumetinib] (first compound max 10 µM, 7x7, partner max 10 µM)"
numeric_value = 0.485

[[record]]
molecule = "COc1nnc2ccc(N3CCC(c4ccc(OCCN5CCN(C)C(=O)[C@H]5C)cc4)CC3)nn12 [AZD5153] + C[C@@H]1COCCN1C2=NC(=NC(=C2)C3(CC3)[S@](=N)(=O)C)C4=C5C=CNC5=NC=C4 [AZD6738] (first compound max 1 µM, 7x7, partner max 10 µM)"
numeric_value = 0.604

[[record]]
molecule = "COc1nnc2ccc(N3CCC(c4ccc(OCCN5CCN(C)C(=O)[C@H]5C)cc4)CC3)nn12 [AZD5153] + Cc1c2c(nn1C)CSCc1cc(n(C)n1)CSc1cc(c3ccccc3c1)OCCCc1c(C(=O)O)n(C)c3c-2c(Cl)ccc13 [AZD5991] (first compound max 1 µM, 7x7, partner max 1 µM)"
numeric_value = 0.719

[[record]]
molecule = "Cc1c2c(nn1C)CSCc1cc(n(C)n1)CSc1cc(c3ccccc3c1)OCCCc1c(C(=O)O)n(C)c3c-2c(Cl)ccc13 [AZD5991] + Cc1cc2ncnn2cc1Nc1ncc2c(n1)n(C1CCOCC1)c(=O)n2C [AZD7648] (first compound max 1 µM, 7x7, partner max 10 µM)"
numeric_value = 0.283

[[record]]
molecule = "N#Cc1cnc(Nc2cc(NC[C@H]3CNCCO3)c(C(F)(F)F)cn2)cn1 [SRA737] + CCc1c2c(nc3ccc(O)cc13)-c1cc3c(c(=O)n1C2)COC(=O)[C@]3(O)CC [SN-38] (first compound max 10 µM, 7x7, partner max 0.3 µM)"
numeric_value = 0.679

[[record]]
molecule = "Cc1nc(Nc2ncc(C(=O)Nc3c(C)cccc3Cl)s2)cc(N2CCN(CCO)CC2)n1 [Dasatinib] + CC(=O)Nc1cccc(-n2c(=O)n(C3CC3)c(=O)c3c(Nc4ccc(I)cc4F)n(C)c(=O)c(C)c32)c1 [Trametinib] (first compound max 2 µM, 7x7, partner max 1 µM)"
numeric_value = 0.589

[[record]]
molecule = "CC1(C)CCC(CN2CCN(c3ccc(C(=O)NS(=O)(=O)c4ccc(NCC5CCOCC5)c([N+](=O)[O-])c4)c(Oc4cnc5[nH]ccc5c4)c3)CC2)=C(c2ccc(Cl)cc2)C1 [Venetoclax] + C[C@@H](Nc1cc(F)cc(F)c1)c1cc(C(=O)N(C)C)cc2c(=O)cc(N3CCOCC3)oc12 [AZD8186] (first compound max 1 µM, 7x7, partner max 3 µM)"
numeric_value = 0.434

[[record]]
molecule = "NC1(C(=O)N[C@@H](CCO)c2ccc(Cl)cc2)CCN(c2ncnc3[nH]ccc23)CC1 [Capivasertib] + CC(C)n1c(=O)n(C)c2cnc3cc(F)c(-c4ccc(OCCCN5CCCCC5)nc4)cc3c21 [AZD1390] (first compound max 10 µM, 7x7, partner max 0.3 µM)"
numeric_value = 0.365

